- PROCEDURE_SUMMARY: Selectivity index, ratio of IC50 for human MCF10A cells to IC50 for human MDA-MB-231 cells
- Assay type: toxicity
- CONDITION_DESCRIPTION: MCF10A cells versus MDA-MB-231 cells, read-out: Ratio IC50
EXPERIMENTAL_ENDPOINT: selectivity ratio

molecule="COc1ccc2nc3cc(Cl)ccc3c(NCCCN3C(=O)CSC3c3c(F)cccc3F)c2c1 (stereo unspecified)" observed_result=7.6

---

- Test system: MDA-MB-468
- PROCEDURE_SUMMARY: Cytotoxicity against human MDA-MB-468 cells assessed as growth inhibition after 48 hrs by SRB assay
- Format: functional, cell-based
- CONDITION_DESCRIPTION: MDA-MB-468, 48 h
EXPERIMENTAL_ENDPOINT: IC50 (µM)

molecule="COc1ccc2nc3cc(Cl)ccc3c(NCCCN3C(=O)CSC3C3CCCCC3)c2c1 (centres undefined)" assayed_system=MDA-MB-468 experimental_endpoint=IC50 observed_result=3.75
molecule="COc1ccc2nc3cc(Cl)ccc3c(NCCCN3C(=O)CSC3c3ccnc4ccccc34)c2c1 (centres undefined)" assayed_system=MDA-MB-468 experimental_endpoint=IC50 observed_result=6.64
molecule="COc1ccc2nc3cc(Cl)ccc3c(NCCCN3C(=O)CSC3c3ccc(C)cc3)c2c1 (centres undefined)" assayed_system=MDA-MB-468 experimental_endpoint=IC50 observed_result=3.59
molecule="COc1ccc2nc3cc(Cl)ccc3c(NCCCN3C(=O)CSC3c3ccccc3Cl)c2c1 (centres undefined)" assayed_system=MDA-MB-468 experimental_endpoint=IC50 observed_result=3.89
molecule="COc1ccc2nc3cc(Cl)ccc3c(NCCCN3C(=O)CSC3c3ccc[nH]3)c2c1 (centres undefined)" assayed_system=MDA-MB-468 experimental_endpoint=IC50 observed_result=4.52
molecule="COc1ccc2nc3cc(Cl)ccc3c(NCCCN3C(=O)CSC3c3ccncc3)c2c1 (centres undefined)" assayed_system=MDA-MB-468 experimental_endpoint=IC50 observed_result=5.1
molecule="COc1ccc2nc3cc(Cl)ccc3c(NCCCN3C(=O)CSC3c3ccc(F)cc3F)c2c1 (centres undefined)" assayed_system=MDA-MB-468 experimental_endpoint=IC50 observed_result=4.15
molecule="COc1ccc2nc3cc(Cl)ccc3c(NCCCN3C(=O)CSC3c3ccco3)c2c1 (centres undefined)" assayed_system=MDA-MB-468 experimental_endpoint=IC50 observed_result=5.58
molecule="COc1ccc2nc3cc(Cl)ccc3c(NCCCN3C(=O)CSC3c3ccc([N+](=O)[O-])cc3)c2c1 (centres undefined)" assayed_system=MDA-MB-468 experimental_endpoint=IC50 observed_result=4.87
molecule="COc1ccc2nc3cc(Cl)ccc3c(NCCCN3C(=O)CSC3c3ccccc3F)c2c1 (centres undefined)" assayed_system=MDA-MB-468 experimental_endpoint=IC50 observed_result=3.91
molecule="COc1ccc2nc3cc(Cl)ccc3c(NCCCN3C(=O)CSC3c3ccc(Br)cc3)c2c1 (centres undefined)" assayed_system=MDA-MB-468 experimental_endpoint=IC50 observed_result=3.68
molecule="COc1ccc2nc3cc(Cl)ccc3c(NCCCN3C(=O)CSC3c3ccc(N(c4ccccc4)c4ccccc4)cc3)c2c1 (centres undefined)" assayed_system=MDA-MB-468 experimental_endpoint=IC50 observed_result=14.4
molecule="COc1ccc2nc3cc(Cl)ccc3c(NCCCN3C(=O)CSC3c3ccccc3)c2c1 (centres undefined)" assayed_system=MDA-MB-468 experimental_endpoint=IC50 observed_result=2.54
molecule="COc1ccc2nc3cc(Cl)ccc3c(NCCCN3C(=O)CSC3c3cccs3)c2c1 (centres undefined)" assayed_system=MDA-MB-468 experimental_endpoint=IC50 observed_result=4.61
molecule="COc1ccc2nc3cc(Cl)ccc3c(NCCCN3C(=O)CSC3c3ccccc3[N+](=O)[O-])c2c1 (centres undefined)" assayed_system=MDA-MB-468 experimental_endpoint=IC50 observed_result=3.2
molecule="COc1ccc2nc3cc(Cl)ccc3c(NCCCN3C(=O)CSC3c3c(Cl)cccc3Cl)c2c1 (centres undefined)" assayed_system=MDA-MB-468 experimental_endpoint=IC50 observed_result=4.04
molecule="COc1ccc2nc3cc(Cl)ccc3c(NCCCN3C(=O)CSC3c3c(F)cccc3F)c2c1 (centres undefined)" assayed_system=MDA-MB-468 experimental_endpoint=IC50 observed_result=2.4
molecule="COc1ccc2nc3cc(Cl)ccc3c(NCCCN3C(=O)CSC3c3c(F)cccc3Cl)c2c1 (centres undefined)" assayed_system=MDA-MB-468 experimental_endpoint=IC50 observed_result=3.96
molecule="COc1ccc2nc3cc(Cl)ccc3c(NCCCN3C(=O)CSC3c3ccc(Cl)cc3)c2c1 (centres undefined)" assayed_system=MDA-MB-468 experimental_endpoint=IC50 observed_result=4.19

---

- Test system: MDA-MB-468
- PROCEDURE_SUMMARY: Cytotoxicity against human MDA-MB-468 cells assessed as growth inhibition after 48 hrs by SRB assay
- Assay type: functional, cell-based
- CONDITION_DESCRIPTION: MDA-MB-468, 48 h
EXPERIMENTAL_ENDPOINT: IC50

molecule="COc1ccc2nc3cc(Cl)ccc3c(NCCCN3C(=O)CSC3c3ccc(F)cc3)c2c1 (centres undefined)" observed_result="4.26 µM"
molecule="COc1ccc2nc3cc(Cl)ccc3c(NCCCN3C(=O)CSC3c3ccccc3Br)c2c1 (centres undefined)" observed_result="4.38 µM"
molecule="COc1ccc2nc3cc(Cl)ccc3c(NCCCN3C(=O)CSC3c3ccc(Cl)cc3Cl)c2c1 (centres undefined)" observed_result="4.15 µM"
molecule="COc1ccc2nc3cc(Cl)ccc3c(NCCCN3C(=O)CSC3c3ccc(N(C)C)cc3)c2c1 (centres undefined)" observed_result="3.32 µM"
